// data source = PubChem BioAssay

Experiment: reversal of MRP1-mediated doxorubicin resistance, pilot screen, H69AR cells, doxorubicin co-treatment (AID 601)
Conditions: H69AR cells + 2 uM doxorubicin, CellTiter-Glo, 72 h; at 10 µM; stronger effect = higher value
Measured differential viability (reversal) of individual entries
measured property: differential viability (reversal) (%)

1) CCN(CC)S(=O)(=O)c1ccc(NC(=O)Cn2cnc3ccccc3c2=O)cc1; 8.02
2) CC(=O)OC(C)C[N+](C)(C)C (stereo unspecified); 14.9
3) c1ccc(CCc2nn3c(Cn4cnc5ccccc54)nnc3s2)cc1; -3.56
4) CCOC(=O)N1CCN(c2cc3[nH]c(=S)[nH]c3cc2F)CC1; -6.7
5) N#Cc1c(N2CCOCC2)nc(N2CCCCC2)c2c1CCN(C1CCCCC1)C2; 17.5
6) CSc1nc(N2CCOCC2)c2c(c1C#N)CCCCC2; 12.9
7) CCOC(=O)c1sc(NS(=O)(=O)c2ccc(NC(C)=O)cc2)nc1C; 7.92
8) CC(=O)N1CCc2cc(S(=O)(=O)NCCC(=O)Nc3cc(C)cc(C)c3)ccc21; 0.35
9) CCn1cc(C(=O)NCc2ccco2)c(=O)c2cc(F)c(N3CCN(C(=O)c4ccco4)CC3)cc21; 40.8
10) Cn1c(=O)n(C)c2cc(NC(=O)C(F)(F)F)ccc21; 11.6
11) O=C(O)CCC(=O)Nc1nc(-c2ccccc2)cs1; -4.88
